Experiment: soluble on expression in E. coli; label from the status in PepcDB or PDB records

[
  {
    "sequence_string": "SLMKQIKHFNQNYQELRQLGKVAIGRRAGKLKAGTIILFAVDSQGKILAARKMQGVTVLAKFHPLPQYVNEDIHYMDHYHPLVQKENKLTQQAMENAREIYLRVELGNYQETQPLTPLNGAKIQWQLWKNKVQTKLKGSVE",
    "soluble on expression in E. coli": "soluble"
  },
  {
    "sequence_string": "MEDLYPSRQNNQPKILKRKDPVIYTDRSKDNQAPITKEQLDSYEKNGFLQIKNFFSEDEVIDMQKAIFELQDSIKDVASDKVIREPESNDIRSIFHVHQDDNYFQDVANDKRILDIVRHLLGSDVYVHQSRINYKPGFKGKEFDWHSDFETWHVEDGMPRMRAISVSIALSDNYSFNGPLMLIPGSHNYFVSCVGETPDNNYKESLKKQKLGVPDEESLRELTRIGGGISVPTGKAGSVTLFESNTMHGSTSNITPYPRNNLFMVYNSVKNRLVEPFSGGEKRPEYIAVREKQPVYSAVNSAWSHPQFEK",
    "soluble on expression in E. coli": "soluble"
  }
]
